Source listed as patent US20020045780A1.

experiment: Acute toxicity in mice (single i.p. dose); type: in vivo; conditions: female, CD-1, mouse, in vivo, ip
Value type: LD50 at 2 h (µmol/kg)
Your answer is read as µmol/kg, so omit the unit and give the number.

Task: What value of LD50 at 2 h has been reported for the following compound? CCNCCCNCCCCNCCCNCC
Result: 842

* * *

System: L1210 cells
Test: Polyamine pool analysis in L1210 cells
Assay type: cell-based, murine
Conditions: Mus musculus, L1210, 48 h, % of untreated control, 100 μM, read-out: Put
Procedure: The following guidelines were adopted for studying the impact of the analogues on polyamine pools (Table 2). The measurements were made after a 48-hour exposure to the analogue, and two different concentrations of analogue were evaluated in each case. The cells were washed twice with cold RPMI-1640, and the pellet was treated with 0.6 N HClO4 (1 ml/10^7 cells). […]
Structures can show the parent of a compound that is named as a salt.
Value type: activity at 100 µM (%)
Your answer is read as %, so omit the unit and give the number.

Task: What value of activity at 100 µM has been reported for the following compound? CCCNCCCNCCCN [MPNSPD, N^1-Propylnorspermidine Trihydrochloride]
Result: 0

Task: Entry to check: CCCNCCCCNCCCNCCC [DPSPD, Trihydrochloride]
Result: 6

Task: Entry to check: CNCCCCNCCCCNC [DMHSPD, Trihydrochloride]
Result: 0

Task: Entry to check: CCCNCCCCCNCCCCCNCCC [DP(5,5), Trihydrochloride]
Result: 59

Task: Entry to check: CNCCCNCCCNC [DMNSPD, Trihydrochloride]
Result: 0

Task: Entry to check: CCCNCCCCNCCCCN [MPHSPD, Trihydrochloride]
Result: 0

* * *

Could you please report measured activity at 100 µM for the items listed next?
Test system: L1210 cells
Assay: Polyamine pool analysis in L1210 cells
Type: cell-based, murine
Conditions: Mus musculus, L1210, 48 h, % of untreated control, 100 μM, read-out: Put
Description: The following guidelines were adopted for studying the impact of the analogues on polyamine pools (Table 2). The measurements were made after a 48-hour exposure to the analogue, and two different concentrations of analogue were evaluated in each case. The cells were washed twice with cold RPMI-1640, and the pellet was treated with 0.6 N HClO4 (1 ml/10^7 cells). […]
Where a name gives a salt, the structure may show the parent alone.
Your answer is read as %, so omit the unit and give the number.

Task: What value of activity at 100 µM has been reported for the following compound? CCNCCCCNCCCN [MESPD(N8), N^8-Ethylspermidine Trihydrochloride]
Result: 0

Task: Entry to check: CCCNCCCNCCCCN [MPSPD(N1), N^1-Propylspermidine Trihydrochloride]
Result: 0

Task: Entry to check: CCCNCCCCNCCCCNCCC [DPHSPD, Trihydrochloride]
Result: 0

* * *

tested on: L1210 cells; assay: Polyamine pool analysis in L1210 cells; type: cell-based, murine; settings: Mus musculus, L1210, 48 h, % of untreated control, 100 μM, read-out: Spm
Structures can show the parent of a compound that is named as a salt.
Value type: activity at 100 µM (%)
Your answer is read as %, so omit the unit and give the number.

Task: What value of activity at 100 µM has been reported for the following compound? CCCNCCCCCNCCCCCNCCC [DP(5,5), Trihydrochloride]
Result: 97

Task: Entry to check: CCCNCCCCCNCCCCNCCC [DP(4,5), 4,9,15-Triazaoctadecane Trihydrochloride]
Result: 119

Task: Entry to check: CCNCCCNCCCNCC [DENSPD, Trihydrochloride]
Result: 74

Task: Entry to check: CCNCCCNCCCCN [MESPD(N1), N^1-Ethylspermidine Trihydrochloride]
Result: 80
